measurement-target: T1, HLA-A*02:01 (human)
T1 construct: captured on streptavidin plates, detected with anti-β2m; also called peptide-receptive MHC molecules; MHC class I
assay-protocol: UV-ligand exchange + anti-β2m ELISA; exchange yield grade: ≥10% +, ≥20% ++, ≥50 +++, ≥75% ++++
recorded-endpoint: peptide exchange yield

For orientation, consider the following solved cases.
# binder, peptide exchange yield
rows = [
    ("LLIEVSEEL (also called LLIEVSEEL) [altORF-012]", "≥ 75%"),
    ("TISISLSSV (also called TISISLSSV) [altORF-051]", "≥ 75%"),
    ("LLCPVVLQL (also called LLCPVVLQL) [altORF-067]", "≥ 75%"),
    ("ALLDVLVKL (also called ALLDVLVKL) [COLPDG-001]", "≥ 75%"),
    ("IAAGVPNTDA (also called IAAGVPNTDA) [altORF-025]", "20 to 50%"),
    ("WITPVIPAL (also called WITPVIPAL) [altORF-040]", "≥ 75%"),
    ("LLNVEPAGA (also called LLNVEPAGA) [altORF-032]", "≥ 75%"),
    ("YIYEDEVRL (also called YIYEDEVRL) [altORF-037]", "≥ 75%"),
    ("FASERPPSV (also called FASERPPSV) [altORF-031]", "≥ 75%"),
    ("VLISLPGKV (also called VLISLPGKV) [altORF-018]", "20 to 50%"),
]

Using the record for FLWDPRDVVL (also called FLWDPRDVVL) [altORF-047] , state its measured peptide exchange yield.
≥ 75%

Please report the measured peptide exchange yield for ILQSLVPAA (also called ILQSLVPAA) [altORF-006]
≥ 75%

Query peptide exchange yield for STTIINLIL (From a human endogenous retrovirus; also called STTIINLIL) [HERVK-002]
20 to 50%

Identify measured peptide exchange yield associated with ILNELLNSI (also called ILNELLNSI) [altORF-064]
≥ 75%

State its peptide exchange yield: TLTSLNILL (also called TLTSLNILL) [altORF-022]
≥ 75%

# return recorded peptide exchange yield for input LAASTTFLGV (also called LAASTTFLGV) [altORF-057]
≥ 75%
